Consider the following molecules; for each one, report its log10 of TGI.
# Test system: MDA-MB-231 breast
# experiment summary: NCI tumour cell line growth inhibition, 48 h
Hi team, quick reminder: these entries are log10 of TGI (µM).

Example results:
The measured log10 of TGI associated with NC1(C(=O)O)CSSC1 reads 1.65

The measured log10 of TGI associated with O=C1c2c(Br)sc(Br)c2[C@H]2OC(=S)N[C@@H]12 reads 1.40

The measured log10 of TGI associated with C#CCn1cc(C=C2C(=O)NC(=S)NC2=O)c2cc(Cl)ccc21 reads 0.56

The measured log10 of TGI associated with O=C1c2cccnc2C(=O)c2c1nc1ccccc1c2-c1ccc2c3c(nc4ccccc42)C(=O)c2cccnc2-c13 reads 0.98

The measured log10 of TGI associated with NC(=O)c1c(NC(=O)c2cccc(C(F)(F)F)c2)sc2c1CCC(=O)C2 reads 0.44

Each of the following entries comes with a recorded value; kindly state log10 of TGI for each.
1. CC(C)c1ccc2c(c1)c(SC(C)(C)C)c(CC(C)(C)C(=O)O)n2Cc1ccc(Cl)cc1
2. CCOC(=O)C(=Cc1c(-c2ccccc2)[nH]c2ccccc12)C(=O)OCC
3. Cc1cc(C(=O)Nc2cc(Nc3ncccc3-c3ncnc4nc[nH]c34)ccc2F)cc(C(C)(C)C#N)c1
4. O=C(Nc1cccc(Cl)c1)c1cc(Cl)ccc1O

Reply:
1: 1.44; 2: 1.54; 3: 0.73; 4: 0.92

Each of the following entries comes with a recorded value; kindly state log10 of TGI for each.
1. COc1ccc(-c2nn(-c3cccc(Cl)c3)cc2/C=C2\C(=N)N(c3ccccc3)N=C2N)cc1
2. CCOC(=O)/N=c1\ssc(Cl)c1Cl
3. O=C1c2cc3c(cc2-c2c1c1cc(F)c(F)cc1c(=O)n2C[C@H](O)CO)OCO3
4. NCCn1c2c(c3ccccc3c1=O)C(=O)c1ccccc1-2

Reply:
[1.46, 1.46, 0.50, 0.17]
